Test system: Saccharomyces cerevisiae
Experiment: Antifungal activity against Saccharomyces cerevisiae BY4741 assessed as growth rate at 2 ug/ml (reference value: 0.144%)
Type: functional
# Activity per entry
RECORDED_ENDPOINT: Activity (%)

- MOLECULE: "CCC(C)n1ncn(-c2ccc(N3CCN(c4ccc(OCC5COC(Cn6cncn6)(c6ccc(Cl)cc6Cl)O5)cc4)CC3)cc2)c1=O (stereo not given) [ITRACONAZOLE]"
  ASSAY_TARGET: "Saccharomyces cerevisiae"
  NUMERIC_VALUE: 0.044
- MOLECULE: "C[C@@H](c1ncncc1F)[C@](O)(Cn1cncn1)c1ccc(F)cc1F [VORICONAZOLE]"
  ASSAY_TARGET: "Saccharomyces cerevisiae"
  NUMERIC_VALUE: 0.051
- MOLECULE: "Clc1ccc(COC(Cn2ccnc2)c2ccc(Cl)cc2Cl)c(Cl)c1 (stereo not given) [MICONAZOLE]"
  ASSAY_TARGET: "Saccharomyces cerevisiae"
  NUMERIC_VALUE: 0.023
- MOLECULE: "Clc1ccccc1C(c1ccccc1)(c1ccccc1)n1ccnc1 [CLOTRIMAZOLE]"
  ASSAY_TARGET: "Saccharomyces cerevisiae"
  NUMERIC_VALUE: 0.088
- MOLECULE: "CC(=O)N1CCN(c2ccc(OCC3COC(Cn4ccnc4)(c4ccc(Cl)cc4Cl)O3)cc2)CC1 (stereo not given) [KETOCONAZOLE]"
  ASSAY_TARGET: "Saccharomyces cerevisiae"
  NUMERIC_VALUE: 0.088
